Measured values drawn from ChEMBL document CHEMBL3988442 for this set.

# target: Ubiquitin-activating enzyme e1, putative (Leishmania donovani (strain BPK282A1)) (UniProt E9BSI1)
# Sequence (E9BSI1 as listed by the source): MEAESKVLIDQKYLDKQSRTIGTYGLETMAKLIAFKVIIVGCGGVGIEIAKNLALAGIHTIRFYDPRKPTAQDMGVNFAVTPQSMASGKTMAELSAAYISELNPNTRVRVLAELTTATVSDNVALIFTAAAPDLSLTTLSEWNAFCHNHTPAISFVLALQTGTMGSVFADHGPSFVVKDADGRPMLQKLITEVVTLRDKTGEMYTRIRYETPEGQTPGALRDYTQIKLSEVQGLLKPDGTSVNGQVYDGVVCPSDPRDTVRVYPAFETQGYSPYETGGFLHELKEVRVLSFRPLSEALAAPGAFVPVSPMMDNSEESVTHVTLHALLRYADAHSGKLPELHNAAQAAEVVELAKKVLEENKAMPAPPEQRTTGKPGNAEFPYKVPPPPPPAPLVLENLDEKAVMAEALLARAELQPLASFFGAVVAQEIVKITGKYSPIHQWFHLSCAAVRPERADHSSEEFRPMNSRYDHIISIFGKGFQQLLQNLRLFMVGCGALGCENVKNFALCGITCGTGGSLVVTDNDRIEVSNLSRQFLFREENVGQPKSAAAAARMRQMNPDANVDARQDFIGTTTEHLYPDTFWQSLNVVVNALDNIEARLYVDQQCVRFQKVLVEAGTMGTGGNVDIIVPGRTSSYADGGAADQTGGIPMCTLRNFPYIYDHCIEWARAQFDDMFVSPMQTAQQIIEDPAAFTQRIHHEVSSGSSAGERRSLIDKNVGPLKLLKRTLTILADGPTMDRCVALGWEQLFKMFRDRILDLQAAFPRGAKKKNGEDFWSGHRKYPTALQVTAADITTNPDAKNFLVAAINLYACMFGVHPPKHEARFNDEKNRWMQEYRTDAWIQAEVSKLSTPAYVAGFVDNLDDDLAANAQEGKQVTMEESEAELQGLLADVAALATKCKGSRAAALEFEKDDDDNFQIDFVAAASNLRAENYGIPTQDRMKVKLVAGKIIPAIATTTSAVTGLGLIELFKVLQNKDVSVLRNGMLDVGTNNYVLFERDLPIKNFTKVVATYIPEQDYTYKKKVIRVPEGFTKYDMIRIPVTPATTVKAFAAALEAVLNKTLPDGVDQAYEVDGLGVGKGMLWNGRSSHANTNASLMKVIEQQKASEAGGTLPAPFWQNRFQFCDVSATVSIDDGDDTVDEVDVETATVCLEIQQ
# measurement.notes: Leishmania donovani Ubiquitin Activating Enzyme (LdE1)
# Assay type: functional
# Set-up: scale not given: direction of the effect not stated beside the values
# assay.conditions: 30 µM
Entries with a potency or affinity are not part of this list.
property: Percent Effect (%)
I only need the number, in %, no unit after it.

The examples below pair each entry with its known result.
{"columns": ["compound", "property", "unit.tag", "result.number"],
 "data": [
  ["Cc1cc(F)ccc1S(=O)(=O)NCc1cccc(C(=O)N2CCCC2)c1", "Percent Effect", "%", 15.6],
  ["CC(C)c1nc(C2CCCN(C(=O)Cc3cccnc3)C2)no1 (stereo not drawn)", "Percent Effect", "%", 16.2],
  ["COCC(=O)N1CC[C@H]2C[C@@H](c3nnc(C4CC4)o3)O[C@@H]2C1", "Percent Effect", "%", 18.7]
]}

Give the reported value of Percent Effect for this record: CCN(Cc1nc2c(cnn2C)c(=O)[nH]1)c1cccc(Cl)c1
10.4

Dear colleague, please send me the reported Percent Effect for Cc1cnn(CCC(=O)N2CCOC(c3nc(C(C)(C)C)n[nH]3)C2)c1 (stereo not drawn) when you can.
-6.94

Consider the compound O=C(CN1CCC(C(=O)c2cc(F)ccc2F)CC1)NC1CCCC1 and give its recorded Percent Effect.
-5.26

For Cc1ccc(NC(=O)N(C)Cc2cnn(C)c2)cc1OCC(F)F , write its Percent Effect.
2.7

----------
# target: Proteasome subunit beta (Trypanosoma cruzi)
# Sequence (whole entry): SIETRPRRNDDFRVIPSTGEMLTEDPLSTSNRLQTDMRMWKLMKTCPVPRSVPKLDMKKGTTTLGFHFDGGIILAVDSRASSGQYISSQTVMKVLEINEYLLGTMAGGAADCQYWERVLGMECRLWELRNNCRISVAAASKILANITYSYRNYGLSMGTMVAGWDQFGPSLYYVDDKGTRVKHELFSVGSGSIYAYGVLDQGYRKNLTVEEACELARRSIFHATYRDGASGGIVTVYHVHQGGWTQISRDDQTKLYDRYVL
# measurement.notes: Trypanosoma cruzi proteasome chymotrypsin-like activity (TcProtChymo) assay. Further: in the data most compounds retested in dose-response had high values.
# Format: functional
# Parameters: scale not given: direction of the effect not stated beside the values
# assay.conditions: 9.37 µM
Entries and their Percent Effect
Give just the numeric value; % need not be written.

Below, 5 compounds whose answers are already recorded.
{"columns": ["compound", "unit.tag", "Percent Effect"],
 "data": [
  ["Cc1cccc(COC[C@]23COC[C@H]2CN(C(=O)c2ccsc2)C3)n1", "%", 10.9],
  ["COc1ccc(CNC(=O)CNc2cc3c(cc2Cl)OCCCO3)cc1", "%", 3.35],
  ["COCCO[C@@H]1CCN(C(=O)c2ccc(C)o2)[C@@H]1Cc1cccnc1", "%", 8.03],
  ["CN(CCC#N)C(=O)CCOc1cccc(F)c1", "%", 10.3],
  ["CCc1nc(CN2CCOC(Cn3nc(C)nc3C)C2)no1 (stereo unspecified)", "%", 3.64]
]}

Please turn your attention to the following entry.
Read the entry Cc1cnn(C2CN(CC(O)c3ccc(F)cc3)C2)c1 (stereo unspecified) and write its reported Percent Effect.
3.31

----------
# Tested on: Trypanosoma cruzi
# measurement.notes: Trypanosoma cruzi phosphomannomutase and mannose-1-phosphate guanylyltransferase assay
# Format: functional
# Parameters: scale not given: direction of the effect not stated beside the values
# assay.conditions: 10 µM
Listed here: items and their measured Percent Effect.
The answer consists of two parts: a number and, after it, its unit.

As a guide, the following entries are already answered.
{"columns": ["compound", "Percent Effect"],
 "data": [
  ["CC(C)c1nc(C2CCCN(C(=O)Cc3cccnc3)C2)no1 (centres undefined)", "-10.3%"],
  ["CC(C)c1ncc(CN2C[C@@H](CN3CCC(CO)CC3)[C@@H](CO)C2)cn1", "3.02%"],
  ["CN(C)C(CNS(=O)(=O)c1ccc(F)cc1F)c1cccn1C (centres undefined)", "-4.9%"],
  ["CC(=O)Nc1nc(CN2CCn3c(nnc3C3CC3)C2)cs1", "5.11%"],
  ["Cc1nnc(N2CC[C@H]3C[C@@H](C(=O)NC4CCCC4)O[C@H]3C2)s1", "-1.66%"],
  ["CS(=O)(=O)c1ccc(OCCNCc2cccc(F)c2)cc1", "3.57%"],
  ["O=C(CN1CCCC(O)C1)NC(=O)NCc1cccs1 (centres undefined)", "-5.16%"],
  ["CCc1ccc(S(=O)(=O)Nc2c(C)cccc2C(=O)O)s1", "2.71%"],
  ["CCSCCC(=O)Nc1ncn(CC(=O)NCc2ccccc2)n1", "8.86%"],
  ["CC(C)(C)C(=O)NCCC(=O)NS(=O)(=O)c1ccc2c(c1)OCCO2", "7.64%"]
]}

Complete the entry with Percent Effect for CCn1ccnc1CN1CCN(CC(=O)NC(C)(C#N)C2CC2)CC1 (centres undefined)
-8.84%
